Test system: A. fumigatus
run description: A. fumigatus MIC at 100% growth inhibition (CLSI M38-A2)
Type: cell-based, Aspergillus fumigatus
conditions: 100% growth inhibition; range tested 8-0.0078 μg/mL; values given as ranges
property measured: Aspergillus fumigatus MIC

// worked examples, Aspergillus fumigatus MIC included
compound	Aspergillus fumigatus MIC
OC(CC(F)(F)F)c1ccc(N2CCN(c3ccc(-c4ccc(C(F)(F)[C@](O)(Cn5cnnn5)c5ccc(F)cc5F)nc4)cc3)CC2)cn1 (stereo partly drawn) [Example 13]	0.25 to 1.0 µg/mL
OC(c1cn(-c2ccc(N3CCN(c4ccc(-c5ccc(C(F)(F)C(O)(Cn6cnnn6)c6ccccc6F)nc5)cc4)CC3)cc2)nn1)C(F)(F)F (single isomer, unassigned; (+)) [108(+)]	0.25 to 1.0 µg/mL

Below: the item to evaluate.
// query GET /values?readout=Aspergillus fumigatus MIC&item= CC[C@@H]([C@H](C)O)n1ncn(-c2ccc(N3CCN(c4ccc(-c5ccc(C(F)(F)C(O)(Cn6cnnn6)c6ccccc6F)nc5)cc4)CC3)cc2)c1=O (stereo partly drawn) [38(−)]
// result >8 µg/mL
